# test_system: Thymidine kinase (Herpes simplex virus 2)
# assay_procedure: Compound was evaluated for Kinetic constant for viral thymidine kinase of Herpes simplex virus (HSV) -2
readout_kind: Ki (nM)
Quick reminder: number only, in nM, skip the unit.

## Input Which Ki is reported for this compound? `O=c1[nH]c(=O)n([C@@H]2O[C@H](CO)[C@@H](O)[C@@H]2F)cc1I`
## Output 950

---

# test_system: Thymidine kinase (Herpes simplex virus 1)
# assay_procedure: Compound was evaluated for Kinetic constant for viral thymidine kinase of Herpes simplex virus (HSV) -1
readout_kind: Ki
Form entry: enter the amount, then its unit.

## Input Which Ki is reported for this compound? `O=c1[nH]c(=O)n([C@@H]2O[C@H](CO)[C@@H](O)[C@@H]2F)cc1I`
## Output 140 nM

Data origin: BindingDB's records for doi:10.1021/jm00388a021
